- Test system: PBMC
- experimental protocol: Inhibition of lipopolysaccharide stimulated TNF-alpha release in human PBMC at 100 uM
- Type: functional
Assign satisfied whenever inhibition at 100 µM does not fall below 80%; assign not satisfied whenever it does.

Please review the following examples before continuing.
| compound | class |
| --- | --- |
| Nc1cccc2c1CN(C1CCC(=O)NC1=O)C2=O (centres undefined) [LENALIDOMIDE] | not satisfied |
| Nc1cccc2c1C(=O)N([C@H]1CCC(=O)NC1=O)C2=O | satisfied |
| Nc1ccc2c(c1)CN(C1CCC(=O)NC1=O)C2=O (centres undefined) | not satisfied |
| Nc1cccc2c1C(=O)N(C1CCC(=O)NC1=O)C2=O (centres undefined) [POMALIDOMIDE] | satisfied |

Q: Confirm if inhibition at 100 µM reported for the compound Nc1ccc2c(c1)C(=O)N(C1CCC(=O)NC1=O)C2 (centres undefined) is 80% or above.
Ans: not satisfied

Q: Record CC1(N2C(=O)c3cccc(N)c3C2=O)CCC(=O)NC1=O (centres undefined) ; criterion: inhibition at 100 µM no lower than 80%. Met?
Ans: satisfied

Q: Is the recorded value of inhibition at 100 µM equal to or greater than 80% for this compound? Nc1cccc2c1C(=O)N(C1CCC(=O)NC1=O)C2 (centres undefined)
Ans: not satisfied

Q: Test whether the compound Nc1cccc2c1C(=O)N([C@@H]1CCC(=O)NC1=O)C2=O records inhibition at 100 µM of 80% or higher.
Ans: satisfied

Q: Would you say Nc1ccc2c(c1)C(=O)N(C1CCC(=O)NC1=O)C2=O (centres undefined) shows inhibition at 100 µM at minimum 80%?
Ans: not satisfied
